Target: recombinant human PAD2 (human, UniProt Q9Y2J8 1-665)
Sequence (Q9Y2J8 whole entry): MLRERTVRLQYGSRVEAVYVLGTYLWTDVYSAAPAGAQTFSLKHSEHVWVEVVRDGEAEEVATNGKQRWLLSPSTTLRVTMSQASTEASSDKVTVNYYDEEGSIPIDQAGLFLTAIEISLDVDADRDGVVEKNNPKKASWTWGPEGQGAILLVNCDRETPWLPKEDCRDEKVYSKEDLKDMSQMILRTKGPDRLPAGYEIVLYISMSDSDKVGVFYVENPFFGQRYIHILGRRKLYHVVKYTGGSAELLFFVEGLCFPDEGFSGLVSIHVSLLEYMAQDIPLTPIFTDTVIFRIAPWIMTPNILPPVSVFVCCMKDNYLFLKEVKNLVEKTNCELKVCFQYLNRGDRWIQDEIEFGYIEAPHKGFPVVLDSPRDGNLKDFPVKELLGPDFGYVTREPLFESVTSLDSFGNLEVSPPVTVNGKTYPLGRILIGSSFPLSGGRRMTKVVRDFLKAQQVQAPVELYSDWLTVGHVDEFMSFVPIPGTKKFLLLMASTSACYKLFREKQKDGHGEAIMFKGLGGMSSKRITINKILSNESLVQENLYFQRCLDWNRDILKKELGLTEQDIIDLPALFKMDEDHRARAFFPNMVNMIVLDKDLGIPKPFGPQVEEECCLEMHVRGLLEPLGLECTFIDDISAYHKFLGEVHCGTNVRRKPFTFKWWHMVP
Assay: cell-based or functional assay
Numbered stars: 1 amine (or outer) side, 2 acyl side, 3 side chain; on linkers, the order of the positions; unused ones are H or OH. Square brackets hold non-standard residues; d marks the D form. Orn(CA) = ornithine chloroamidine, O(CA), N=C(CCl)NCCC[C@H](N[*:1])C(=O)[*:2]; Orn(fluoroacetimidoyl) = N=C(CF)NCCC[C@H](N)C(=O)O
measured_property: conversion of 0708-30 by PAD2, 10 µM inhibitor (%)

{"columns": ["binder", "reported"],
 "data": [
  ["Ac-FFDSHKFD[Orn(CA)]DFIYSD-NH2 (SMILES CC[C@H](C)[C@H](NC(=O)[C@H](Cc1ccccc1)NC(=O)[C@H](CC(=O)O)NC(=O)[C@H](CCCNC(=N)CCl)NC(=O)[C@H](CC(=O)O)NC(=O)[C@H](Cc1ccccc1)NC(=O)[C@H](CCCCN)NC(=O)[C@H](Cc1c[nH]cn1)NC(=O)[C@H](CO)NC(=O)[C@H](CC(=O)O)NC(=O)[C@H](Cc1ccccc1)NC(=O)[C@H](Cc1ccccc1)NC(C)=O)C(=O)N[C@@H](Cc1ccc(O)cc1)C(=O)N[C@@H](CO)C(=O)N[C@@H](CC(=O)O)C(N)=O) [0741-03CA]", 57],
  ["Ac-FFDSHKWH[Orn(fluoroacetimidoyl)]DFFYSD-NH2 (SMILES CC(=O)N[C@@H](Cc1ccccc1)C(=O)N[C@@H](Cc1ccccc1)C(=O)N[C@@H](CC(=O)O)C(=O)N[C@@H](CO)C(=O)N[C@@H](Cc1c[nH]cn1)C(=O)N[C@@H](CCCCN)C(=O)N[C@@H](Cc1c[nH]c2ccccc12)C(=O)N[C@@H](Cc1c[nH]cn1)C(=O)N[C@@H](CCCNC(=N)CF)C(=O)N[C@@H](CC(=O)O)C(=O)N[C@@H](Cc1ccccc1)C(=O)N[C@@H](Cc1ccccc1)C(=O)N[C@@H](Cc1ccc(O)cc1)C(=O)N[C@@H](CO)C(=O)N[C@@H](CC(=O)O)C(N)=O) [0741-02FA]", 52],
  ["Ac-DSKKHD[Orn(CA)]DFLYSD-NH2 (SMILES CC(=O)N[C@@H](CC(=O)O)C(=O)N[C@@H](CO)C(=O)N[C@@H](CCCCN)C(=O)N[C@@H](CCCCN)C(=O)N[C@@H](Cc1c[nH]cn1)C(=O)N[C@@H](CC(=O)O)C(=O)N[C@@H](CCCNC(=N)CCl)C(=O)N[C@@H](CC(=O)O)C(=O)N[C@@H](Cc1ccccc1)C(=O)N[C@@H](CC(C)C)C(=O)N[C@@H](Cc1ccc(O)cc1)C(=O)N[C@@H](CO)C(=O)N[C@@H](CC(=O)O)C(N)=O) [0741-06CA]", 63]
]}
